- Test system: A549 NSCLC
- testSummary: NCI tumour cell line growth inhibition, 48 h

{"molecule": "NC(=O)Oc1cc(OC(N)=O)cc(N(CCCl)CCCl)c1", "GI50": "5.13 µM"}
{"molecule": "CC(C)=CCC/C(C)=C/CC/C(=C/COP(=O)(OCc1ccc([N+](=O)[O-])o1)N(C)CCCCCl)C(C)(C)C (configuration not stated)", "GI50": "10.9 µM"}
{"molecule": "O=C(/C=C\\Sc1nccc(C(F)(F)F)n1)c1ccc(Br)cc1", "GI50": "> 100 µM"}
{"molecule": "CN1CCN(Cc2ccc(NC(=O)c3cncc(C#Cc4c(N)ncc5cc(F)ccc45)c3)cc2C(F)(F)F)CC1", "GI50": "0.887 µM"}
{"molecule": "Cc1cc(C)nc(SC2=C(Nc3cccc(Cl)c3)C(=O)N(Cc3ccccc3)C2=O)n1", "GI50": "> 170 µM"}
{"molecule": "Cn1cc(C2=C(c3c4n(c5ccccc35)CCC(CN)CC4)C(=O)NC2=O)c2ccccc21 (configuration not stated)", "GI50": "4.14 µM"}
{"molecule": "COc1ccc(Nc2ccnc(NCCCNc3ccnc4cc(Cl)ccc34)n2)cc1", "GI50": "1.55 µM"}

====

- Test system: NCI-H460 lung
- testSummary: NCI tumour cell line growth inhibition, 48 h

{"compound": "O=C(O)C(Br)Cc1ccc2c(c1)OCO2 (stereo unspecified)", "TGI": "> 100 µM"}
{"compound": "CCOC(=O)/C=C1\\Nc2ccccc2-n2nnnc21", "TGI": "> 100 µM"}
{"compound": "COc1cc(CCCC(O)COc2cccc3c2C2(O)CCCCCC32)cc(OC)c1 (stereo unspecified)", "TGI": "34.7 µM"}
{"compound": "COC(=O)C(Cc1c[nH]c2ccccc12)NP(=O)(O)OCC1OC(n2cc(F)c(=O)[nH]c2=O)CC1O (stereo unspecified)", "TGI": "> 100 µM"}
{"compound": "COC(=O)/C(C#N)=C(\\Nc1ccccc1)N1CCCCC1", "TGI": "> 100 µM"}
{"compound": "O=c1[nH]c(=O)n(C2CC(O)C(CO)O2)c2nc3ccc4ccccc4c3nc12 (stereo unspecified)", "TGI": "> 100 µM"}
{"compound": "C=C[C@]1(C)C=C2C(=O)[C@@]3(O)OC(=O)[C@@]4(CCCC(C)(C)[C@H]34)[C@@]2(O)CC1", "TGI": "13.9 µM"}
{"compound": "O=c1c2c3c(sc2nc2n1N=CN(c1ccc(Cl)cc1)C2)CCCC3", "TGI": "> 100 µM"}
{"compound": "O=C(O)CCSc1nnc(COc2ccc(Cl)cc2)n1-c1ccccc1", "TGI": "> 100 µM"}
{"compound": "Cc1ncc([N+](=O)[O-])n1CCNC(=O)CCn1ccnc1[N+](=O)[O-]", "TGI": "> 100 µM"}
{"compound": "Cn1cc(C2=C(c3c4n(c5ccccc35)CCC(CN)CC4)C(=O)NC2=O)c2ccccc21 (stereo unspecified)", "TGI": "8.19 µM"}

====

Entries and their TGI
- Test system: HOP-62 NSCLC
- testSummary: NCI tumour cell line growth inhibition, 48 h
measureName: TGI

{"compound": "COC(=O)c1c2c(c(C)[n+]([O-])c1C)C(=O)C(NCc1ccc(F)c(F)c1)=CC2=O", "targetDesc": "HOP-62 NSCLC", "measureName": "TGI", "result": "7.47 µM"}
{"compound": "O=C(Nc1ccc(Br)c(Cl)c1)c1cc(F)ccc1O", "targetDesc": "HOP-62 NSCLC", "measureName": "TGI", "result": "> 13.2 µM"}
{"compound": "COC(=O)C1C(=O)O[C@@H](c2ccc(OC)cc2OC)C1C(=O)OC (stereo partly specified)", "targetDesc": "HOP-62 NSCLC", "measureName": "TGI", "result": "> 100 µM"}
{"compound": "O=C(O)c1cccc(CC(Br)C(=O)O)c1 (stereo unspecified)", "targetDesc": "HOP-62 NSCLC", "measureName": "TGI", "result": "> 100 µM"}
{"compound": "COc1ccc2c(c1)/C(=C\\c1cccc(/C=C3/C(=O)Nc4ccc(OC)cc43)n1)C(=O)N2", "targetDesc": "HOP-62 NSCLC", "measureName": "TGI", "result": "5.07 µM"}
{"compound": "Cc1cc2nc3c(C#N)c(-c4ccccc4)cc(Nc4ccc(F)cc4)n3c2cc1C", "targetDesc": "HOP-62 NSCLC", "measureName": "TGI", "result": "36.6 µM"}
{"compound": "O=S1c2ccc(Cl)cc2CC(SSC2Cc3cc(Cl)ccc3S(=O)c3ccccc32)c2ccccc21 (stereo unspecified)", "targetDesc": "HOP-62 NSCLC", "measureName": "TGI", "result": "> 100 µM"}
{"compound": "ON(CCc1ccccn1)Cc1ccccc1", "targetDesc": "HOP-62 NSCLC", "measureName": "TGI", "result": "> 100 µM"}
{"compound": "Cc1c(Cl)ccc2c1NC(=O)C2(O)C1Cc2ccccc2C1=O (stereo unspecified)", "targetDesc": "HOP-62 NSCLC", "measureName": "TGI", "result": "> 100 µM"}
{"compound": "C=C(Cl)C(Br)(CBr)CCC(Br)C(C)(C)Br (stereo unspecified)", "targetDesc": "HOP-62 NSCLC", "measureName": "TGI", "result": "> 10 µM"}
{"compound": "CCOC(=O)C1=C(C)N(NC(=O)c2ccccc2)C2(O)CCCC12C(=O)OCC (stereo unspecified)", "targetDesc": "HOP-62 NSCLC", "measureName": "TGI", "result": "> 100 µM"}
